Molecular target: T1, mouse TEAD4(210–427), as purified (SPR) (mouse, UniProt Q62296 210-427)
T1 chain: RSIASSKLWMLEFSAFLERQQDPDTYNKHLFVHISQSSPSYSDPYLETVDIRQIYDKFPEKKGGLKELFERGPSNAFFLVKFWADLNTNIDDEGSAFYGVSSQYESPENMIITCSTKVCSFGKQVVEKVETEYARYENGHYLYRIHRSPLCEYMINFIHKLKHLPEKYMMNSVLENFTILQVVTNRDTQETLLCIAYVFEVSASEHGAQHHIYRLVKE
Test: SPR
pKd: −log10 of the molar value. Bridge positions count the residues as written; N and C are the ends. Ends that are not written are not given here.
QUANTITY MEASURED: pKd

Example cases with answers are listed next.
SVDDHFAKALGDTWLQIKAA (lactam (positions not given here); not fully specified (bridges); also: lactam crosslink of 6 atoms, residue identities at the bridge ends not given here) [macrocyclic two-helix motif peptide 4B (lactam 235–250, 6 crosslinking atoms)] :: 4.96
SVDDHFAKALGDTWLQIKAA (lactam (positions not given here); not fully specified (bridges); also: lactam crosslink of 5 atoms, residue identities at the bridge ends not given here) [macrocyclic two-helix motif peptide 4A (lactam 235–250, 5 crosslinking atoms)] :: 4.96

(a) SVDDHFAKALGDTWLQIKAA (lactam 3-18) [macrocyclic two-helix motif peptide 4C (lactam 235–250, seven-atom crosslink)]
(b) SVEDHFAKALGDTWLQIKAA (lactam (positions not given here); not fully specified (bridges)) [macrocyclic two-helix motif peptide 4D (lactam 235–250, seven-atom crosslink)]
I'm curious, which of these has a smaller pKd number: a or b ? Respond with the label that goes with your answer.
a
(a: 5.49, b: 6.00)
